# measurement_target: CDK1-cyclin B (Homo sapiens, UniProt P06493)
# Sequence (P06493 whole entry): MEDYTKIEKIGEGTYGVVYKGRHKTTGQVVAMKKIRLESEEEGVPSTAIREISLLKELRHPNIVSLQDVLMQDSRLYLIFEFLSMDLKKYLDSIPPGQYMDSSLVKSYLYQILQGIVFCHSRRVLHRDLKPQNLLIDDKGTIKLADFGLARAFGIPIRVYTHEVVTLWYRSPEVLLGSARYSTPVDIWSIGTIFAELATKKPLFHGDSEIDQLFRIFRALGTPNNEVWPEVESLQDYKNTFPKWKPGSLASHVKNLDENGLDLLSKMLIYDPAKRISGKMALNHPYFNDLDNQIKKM
# Sequence (P14635 whole entry partner): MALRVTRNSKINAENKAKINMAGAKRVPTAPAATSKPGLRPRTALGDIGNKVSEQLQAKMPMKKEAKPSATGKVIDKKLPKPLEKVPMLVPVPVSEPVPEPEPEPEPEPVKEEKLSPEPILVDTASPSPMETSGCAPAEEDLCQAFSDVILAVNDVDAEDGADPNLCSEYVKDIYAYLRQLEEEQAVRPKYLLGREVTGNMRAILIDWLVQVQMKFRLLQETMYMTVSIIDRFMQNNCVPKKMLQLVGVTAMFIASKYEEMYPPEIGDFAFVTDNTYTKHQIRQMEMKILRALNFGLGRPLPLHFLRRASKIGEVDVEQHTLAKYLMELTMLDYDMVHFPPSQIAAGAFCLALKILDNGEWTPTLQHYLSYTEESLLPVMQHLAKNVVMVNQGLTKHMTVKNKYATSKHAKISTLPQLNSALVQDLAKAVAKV
# test_method_notes: Kinase assay (radioactive phosphate incorporation), CDK1-cyclin B
# Format: biochemical
# particulars: read-out: Kinase Inhibition pIC50 CDK1-cyclin B (converted)
property_name: IC50 (nM)

Some solved cases for reference:
1. CNc1nc(C)c(-c2ccnc(Nc3cc(OC)c(OC)c(OC)c3)n2)s1 | 1000
2. Cc1nc(N)sc1-c1ccnc(Nc2cccc(CNS(=O)(=O)C(F)(F)F)c2)n1 | 631
3. CNS(=O)(=O)c1cccc(Nc2nccc(-c3sc(C)nc3C)n2)c1 | 501
4. Cc1nc(C)c(-c2ccnc(Nc3cccc(CNC(=O)c4ccccc4)c3)n2)s1 | 631
5. CNc1nc(C)c(-c2ccnc(Nc3cc(CO)cc(CO)c3)n2)s1 | 631

A = CC(=O)NCc1cccc(Nc2nccc(-c3sc(-c4cccnc4)nc3C)n2)c1
B = Cc1nc(N)sc1-c1ccnc(Nc2ccc(N3CCNCC3)cc2)n1
Enquiry: Among A and B , which shows a numerically higher IC50 result? Bench note: the answer is the label of the chosen record.
Return: B
(B: 6310 nM, A: 3160 nM)
